# Test system: S. gordonii
# PROTOCOL SUMMARY: Anti-planktonic bacterial ability, MBC (Example 2)
# Assay type: cell-based, S. gordonii (ATCC 35105)
Non-standard residues stand in square brackets, D forms with d. No end group written: not given here. pS = N[C@@H](COP(=O)(O)O)C(=O)O
Would you kindly list MBC, S. gordonii for each of these substances?

Exam item: Any idea what its MBC, S. gordonii is? The substance is TFFRLFNRAKRHHGYKRKFHDSSDSSDSSDSSDSSDSSDSSDSS (not fully specified) [C8-P-113-8DSS]
Marked response: >64 μM mL^−1

Exam item: Moving on to the next substance: SpSpAKRHHGYKRKFH ([pS][pS]AKRHHGYKRKFH) [DPS-P-113]
Marked response: >64 μM mL^−1

Exam item: Moving on to the next substance: DSSDSSDSSDSSDSSDSSDSSDSSAKRHHGYKRKFH [Peptide 8DSS-P-113]
Marked response: 64 μM mL^−1

Exam item: Moving on to the next substance: AKRHHGYKRKFH [Peptide P-113, non-specific AMP, portion of human histatin 5]
Marked response: >128 μM mL^−1

Exam item: Moving on to the next substance: AKRHHGYKRKFHDSSDSSDSSDSSDSSDSSDSSDSS [Peptide P-113-8DSS]
Marked response: >64 μM mL^−1
